Entries annotated with measured combination Emax
Tested on: JHH-4 (Hepatocellular Carcinoma)
PROTOCOL_SUMMARY: combination Emax (second highest fraction inhibited in the dose matrix, 72 h); higher = more inhibition; extreme values may be limits of the assay
EXPERIMENTAL_READOUT: combination Emax

compound="CCc1c2c(nc3ccc(O)cc13)-c1cc3c(c(=O)n1C2)COC(=O)[C@]3(O)CC [SN-38] + CN(C)CCCOc1ccc(-c2ccc3ncc4c(c3c2)n(C2CCOCC2)c(=O)n4C)cn1 [AZD0156] (first compound max 0.3 µM, 7x7, partner max 1 µM)" recorded_measurement=0.905
compound="COc1nnc2ccc(N3CCC(c4ccc(OCCN5CCN(C)C(=O)[C@H]5C)cc4)CC3)nn12 [AZD5153] + C[C@@H]1COCCN1C2=NC(=NC(=C2)C3(CC3)[S@](=N)(=O)C)C4=C5C=CNC5=NC=C4 [AZD6738] (first compound max 1 µM, 7x7, partner max 10 µM)" recorded_measurement=0.714
compound="CN(CCO)CC[C@H](CSc1ccccc1)Nc1ccc(S(=O)(=O)NC(=O)c2ccc(N3CCC([C@@H](O)c4ccccc4-c4ccc(Cl)cc4)CC3)cc2)cc1S(=O)(=O)C(F)(F)F [AZD4320] + C=CCn1c(=O)c2cnc(Nc3ccc(N4CCN(C)CC4)cc3)nc2n1-c1cccc(C(C)(C)O)n1 [AZD1775] (first compound max 1 µM, partner max 1 µM)" recorded_measurement=0.688
compound="COc1nnc2ccc(N3CCC(c4ccc(OCCN5CCN(C)C(=O)[C@H]5C)cc4)CC3)nn12 [AZD5153] + Cn1cnc2c(F)c(Nc3ccc(Br)cc3Cl)c(C(=O)NOCCO)cc21 [Selumetinib] (first compound max 1 µM, 7x7, partner max 10 µM)" recorded_measurement=0.906
compound="NC1(C(=O)N[C@@H](CCO)c2ccc(Cl)cc2)CCN(c2ncnc3[nH]ccc23)CC1 [Capivasertib] + COc1nnc2ccc(N3CCC(c4ccc(OCCN5CCN(C)C(=O)[C@H]5C)cc4)CC3)nn12 [AZD5153] (first compound max 10 µM, 7x7, partner max 1 µM)" recorded_measurement=0.324

---

Test system: DMS-114 (Small Cell Lung Carcinoma)
PROTOCOL_SUMMARY: combination Emax (second highest fraction inhibited in the dose matrix, 72 h); higher = more inhibition; extreme values may be limits of the assay
Each item that follows carries a reported combination Emax.
EXPERIMENTAL_READOUT: combination Emax

molecule="Cc1c2c(nn1C)CSCc1cc(n(C)n1)CSc1cc(c3ccccc3c1)OCCCc1c(C(=O)O)n(C)c3c-2c(Cl)ccc13 [AZD5991] + CC(=O)O[C@H]1C(=O)[C@@]2(C)[C@H]([C@H](OC(=O)c3ccccc3)[C@]3(O)C[C@H](OC(=O)[C@H](O)[C@@H](NC(=O)c4ccccc4)c4ccccc4)C(C)=C1C3(C)C)[C@]1(OC(C)=O)CO[C@@H]1C[C@@H]2O [Paclitaxel] (first compound max 1 µM, 7x7, partner max 3 µM)" recorded_measurement=0.944
molecule="C[C@@H](c1ccc2nccn2c1)n1nnc2ncc(-c3cnn(C)c3)nc21 [Savolitinib] + Cc1c2c(nn1C)CSCc1cc(n(C)n1)CSc1cc(c3ccccc3c1)OCCCc1c(C(=O)O)n(C)c3c-2c(Cl)ccc13 [AZD5991] (first compound max 1 µM, 7x7, partner max 1 µM)" recorded_measurement=0.551
molecule="N#Cc1cnc(Nc2cc(NC[C@H]3CNCCO3)c(C(F)(F)F)cn2)cn1 [SRA737] + CCc1c2c(nc3ccc(O)cc13)-c1cc3c(c(=O)n1C2)COC(=O)[C@]3(O)CC [SN-38] (first compound max 10 µM, 7x7, partner max 0.3 µM)" recorded_measurement=0.608
molecule="C[C@@H]1COCCN1c1cc(C2([S@](C)(=N)=O)CC2)nc(-c2ccnc3[nH]ccc23)n1 [AZD6738] + O=C(c1cc(Cc2n[nH]c(=O)c3ccccc23)ccc1F)N1CCN(C(=O)C2CC2)CC1 [Olaparib] (first compound max 10 µM, 7x7, partner max 10 µM)" recorded_measurement=0.528
molecule="Cc1cc2ncnn2cc1Nc1ncc2c(n1)n(C1CCOCC1)c(=O)n2C [AZD7648] + COc1cc([C@@H]2c3cc4c(cc3[C@@H](O[C@@H]3O[C@@H]5CO[C@@H](C)O[C@H]5[C@H](O)[C@H]3O)[C@H]3COC(=O)[C@H]23)OCO4)cc(OC)c1O [Etoposide] (first compound max 10 µM, 7x7, partner max 10 µM)" recorded_measurement=0.658
molecule="COc1nnc2ccc(N3CCC(c4ccc(OCCN5CCN(C)C(=O)[C@H]5C)cc4)CC3)nn12 [AZD5153] + CC1(C)CCC(CN2CCN(c3ccc(C(=O)NS(=O)(=O)c4ccc(NCC5CCOCC5)c([N+](=O)[O-])c4)c(Oc4cnc5[nH]ccc5c4)c3)CC2)=C(c2ccc(Cl)cc2)C1 [Venetoclax] (first compound max 1 µM, 7x7, partner max 1 µM)" recorded_measurement=0.607

---

# combination Emax listing for each entry below
Tested on: SK-GT-4 (Esophageal Adenocarcinoma)
PROTOCOL_SUMMARY: combination Emax (second highest fraction inhibited in the dose matrix, 72 h); higher = more inhibition; extreme values may be limits of the assay
EXPERIMENTAL_READOUT: combination Emax

molecule="CN(CCO)CC[C@H](CSc1ccccc1)Nc1ccc(S(=O)(=O)NC(=O)c2ccc(N3CCC([C@@H](O)c4ccccc4-c4ccc(Cl)cc4)CC3)cc2)cc1S(=O)(=O)C(F)(F)F [AZD4320] + CCN(CCO)CCCOc1ccc2c(Nc3cc(CC(=O)Nc4cccc(F)c4)[nH]n3)ncnc2c1 [AZD2811] (first compound max 1 µM, 7x7, partner max 1 µM)" experimental_readout="combination Emax" recorded_measurement=0.238
molecule="C=CCn1c(=O)c2cnc(Nc3ccc(N4CCN(C)CC4)cc3)nc2n1-c1cccc(C(C)(C)O)n1 [AZD1775] + O=C(c1cc(Cc2n[nH]c(=O)c3ccccc23)ccc1F)N1CCN(C(=O)C2CC2)CC1 [Olaparib] (first compound max 1 µM, partner max 10 µM)" experimental_readout="combination Emax" recorded_measurement=0.363
molecule="C[C@@H](Oc1cc(-c2cnn(C3CCNCC3)c2)cnc1N)c1c(Cl)ccc(F)c1Cl [Crizotinib] + Cn1cnc2c(F)c(Nc3ccc(Br)cc3Cl)c(C(=O)NOCCO)cc21 [Selumetinib] (first compound max 10 µM, 7x7, partner max 10 µM)" experimental_readout="combination Emax" recorded_measurement=0.461

---

Test system: NCI-H526 (Small Cell Lung Carcinoma)
PROTOCOL_SUMMARY: Bliss excess, mean over the matrix (fraction); higher = more synergy
EXPERIMENTAL_READOUT: Bliss excess

compound="Cc1cc2ncnn2cc1Nc1ncc2c(n1)n(C1CCOCC1)c(=O)n2C [AZD7648] + C=CCn1c(=O)c2cnc(Nc3ccc(N4CCN(C)CC4)cc3)nc2n1-c1cccc(C(C)(C)O)n1 [AZD1775] (first compound max 10 µM, partner max 1 µM)" recorded_measurement=0.013
compound="Cc1c2c(nn1C)CSCc1cc(n(C)n1)CSc1cc(c3ccccc3c1)OCCCc1c(C(=O)O)n(C)c3c-2c(Cl)ccc13 [AZD5991] + C[C@@H]1COCCN1C2=NC(=NC(=C2)C3(CC3)[S@](=N)(=O)C)C4=C5C=CNC5=NC=C4 [AZD6738] (first compound max 1 µM, 7x7, partner max 10 µM)" recorded_measurement=0.0188

---

# Bliss excess listing for each entry below
Test system: SK-GT-4 (Esophageal Adenocarcinoma)
PROTOCOL_SUMMARY: Bliss excess, mean over the matrix (fraction); higher = more synergy
EXPERIMENTAL_READOUT: Bliss excess

compound="Cc1cc2ncnn2cc1Nc1ncc2c(n1)n(C1CCOCC1)c(=O)n2C [AZD7648] + CCN(CCO)CCCOc1ccc2c(Nc3cc(CC(=O)Nc4cccc(F)c4)[nH]n3)ncnc2c1 [AZD2811] (first compound max 10 µM, 7x7, partner max 1 µM)" target_entity="SK-GT-4 (Esophageal Adenocarcinoma)" recorded_measurement=-0.0041
compound="CN(CCO)CC[C@H](CSc1ccccc1)Nc1ccc(S(=O)(=O)NC(=O)c2ccc(N3CCC([C@@H](O)c4ccccc4-c4ccc(Cl)cc4)CC3)cc2)cc1S(=O)(=O)C(F)(F)F [AZD4320] + CN(C)CCCOc1ccc(-c2ccc3ncc4c(c3c2)n(C2CCOCC2)c(=O)n4C)cn1 [AZD0156] (first compound max 1 µM, 7x7, partner max 1 µM)" target_entity="SK-GT-4 (Esophageal Adenocarcinoma)" recorded_measurement=-0.067
compound="CN(CCO)CC[C@H](CSc1ccccc1)Nc1ccc(S(=O)(=O)NC(=O)c2ccc(N3CCC([C@@H](O)c4ccccc4-c4ccc(Cl)cc4)CC3)cc2)cc1S(=O)(=O)C(F)(F)F [AZD4320] + CS(=O)(=O)CCNCc1ccc(-c2ccc3ncnc(Nc4ccc(OCc5cccc(F)c5)c(Cl)c4)c3c2)o1 [Lapatinib] (first compound max 1 µM, 7x7, partner max 10 µM)" target_entity="SK-GT-4 (Esophageal Adenocarcinoma)" recorded_measurement=0.0451
compound="COc1cccc(OCCCN)c1-c1cc(Nc2cnc(C#N)cn2)n[nH]1 [Prexasertib] + C[C@@H]1COCCN1C2=NC(=NC(=C2)C3(CC3)[S@](=N)(=O)C)C4=C5C=CNC5=NC=C4 [AZD6738] (first compound max 1 µM, 7x7, partner max 10 µM)" target_entity="SK-GT-4 (Esophageal Adenocarcinoma)" recorded_measurement=-0.0233
compound="CC(=O)c1c(C)c2cnc(Nc3ccc(N4CCNCC4)cn3)nc2n(C2CCCC2)c1=O [Palbociclib] + CC1(C)CCC(CN2CCN(c3ccc(C(=O)NS(=O)(=O)c4ccc(NCC5CCOCC5)c([N+](=O)[O-])c4)c(Oc4cnc5[nH]ccc5c4)c3)CC2)=C(c2ccc(Cl)cc2)C1 [Venetoclax] (first compound max 10 µM, 7x7, partner max 1 µM)" target_entity="SK-GT-4 (Esophageal Adenocarcinoma)" recorded_measurement=-0.0437
